assayInfo: reduction of polyQ htt aggregates in cells – imaging, exon1htt(103Q)mCFP cells, high-content imaging, primary screen (AID 483);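 also: compound exposure lasted 3 days before fixation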
details: exon1htt(103Q)mCFP cell line, aggregate imaging, at 2 µM
Activity calls are given as the source filed them.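 The calls were made as follows: active = visual image review flags a hit and inhibition of aggregation exceeds 20%; inconclusive = visual hit but inhibition at or below 20%; inactive = no hit on visual image review.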
Labels: active, inactive

- CCOc1ccc(N2CC(C(=O)NCCc3ccc(OC)c(OC)c3)CC2=O)cc1 (stereo not drawn): inactive
- O=C(Nc1ccncc1)c1cccc(F)c1: inactive
- O=C1NC(=O)C(CC(=O)N(Cc2ccco2)C2(C(=O)NC3CCCC3)CCCCC2)N1 (stereo not drawn): active
- CCOc1ccc(N(CC(=O)NCc2ccco2)S(=O)(=O)c2ccc(OC)c(OC)c2)cc1: inactive
- O=C(Nc1ccccc1)c1cnc2n(c1=O)CCS2: inactive
- CSc1ccccc1N=CC1=C(O)CC(C)(C)CC1=O: inactive
- C=CCn1c(SCC2=C(C(=O)OCC)C(C)NC(=O)N2)nnc1C1CCCCC1 (stereo not drawn): inactive
- COCCn1c(SCC(=O)Nc2ccc3c(c2)OCCO3)nc2c(c1=O)SC(C)C2 (stereo not drawn): inactive
- CCC(C)c1ccc(NC(=O)c2cccnc2)cc1 (stereo not drawn): inactive
- c1ccc(CN2CCN(CCCNc3ccc4nnc(-c5ccccc5)n4n3)CC2)cc1: inactive
- CCS(=O)(=O)N1CCCC(C(=O)NCCc2ccc(OC)c(OC)c2)C1 (stereo not drawn): inactive
- CCN(CC)CCNC(=O)CCn1c(=S)[nH]c2cc3c(cc2c1=O)OCO3: inactive
- CC(C)CC(OC(=O)c1cccs1)C(=O)NCc1ccco1 (stereo not drawn): inactive
- Cc1c(C)n(C)c2ccc(C(=O)NCc3cccs3)cc12: inactive
- CCOc1ccccc1-c1nc(-c2ccc(C)nc2OC)no1: inactive
- CCOC(=O)CSc1nnc([C@H](C)NC(=O)OC(C)(C)C)o1: inactive
- CC(=O)N1CCc2cc(Br)cc(S(=O)(=O)NCCCN3CCCC(C)C3)c21 (stereo not drawn): inactive
- CCCCC(=O)NCCc1ccc(S(N)(=O)=O)cc1: inactive
- CC(c1ccco1)N(Cc1ccco1)C(=O)Nc1ccccc1 (stereo not drawn): inactive
- CCOC(=O)CN1CC23C=CC(O2)C(C(=O)NC2CCCC2)C3C1=O (stereo not drawn): inactive
- CCOC(=O)C1CCCN(c2c(Nc3ccc(C)c(C)c3)c(=O)c2=O)C1 (stereo not drawn): inactive
- CCCCOc1ccc(CSc2n[nH]c(C)n2)cc1: inactive
- O=C(Nc1ccon1)c1csc2c1CCCC2: inactive

Each recorded value in this set is attributed to PubChem BioAssay.
